Here the recorded Bliss excess is given for each entry.
Test system: ESS-1 (Other Solid Carcinomas);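 further: after 72 h of two-drug dosing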
Assay Protocol: Bliss excess, mean over the matrix (fraction); higher = more synergy
Kindly provide the number alone.

// solved cases for Bliss excess follow
Compound	Target Or System	Recorded Result
CCc1c2c(nc3ccc(O)cc13)-c1cc3c(c(=O)n1C2)COC(=O)[C@]3(O)CC [SN-38] + O=C(c1cc(Cc2n[nH]c(=O)c3ccccc23)ccc1F)N1CCN(C(=O)C2CC2)CC1 [Olaparib] (first compound max 0.3 µM, 7x7, partner max 10 µM)	ESS-1 (Other Solid Carcinomas)	0.0735
Cc1c2c(nn1C)CSCc1cc(n(C)n1)CSc1cc(c3ccccc3c1)OCCCc1c(C(=O)O)n(C)c3c-2c(Cl)ccc13 [AZD5991] + CS(=O)(=O)CCNCc1ccc(-c2ccc3ncnc(Nc4ccc(OCc5cccc(F)c5)c(Cl)c4)c3c2)o1 [Lapatinib] (first compound max 1 µM, 7x7, partner max 10 µM)	ESS-1 (Other Solid Carcinomas)	0.0292
Cc1cc2ncnn2cc1Nc1ncc2c(n1)n(C1CCOCC1)c(=O)n2C [AZD7648] + CN(C)CCCOc1ccc(-c2ccc3ncc4c(c3c2)n(C2CCOCC2)c(=O)n4C)cn1 [AZD0156] (first compound max 10 µM, 7x7, partner max 1 µM)	ESS-1 (Other Solid Carcinomas)	0.0364
Cc1c2c(nn1C)CSCc1cc(n(C)n1)CSc1cc(c3ccccc3c1)OCCCc1c(C(=O)O)n(C)c3c-2c(Cl)ccc13 [AZD5991] + CN(C)CCCOc1ccc(-c2ccc3ncc4c(c3c2)n(C2CCOCC2)c(=O)n4C)cn1 [AZD0156] (first compound max 1 µM, 7x7, partner max 1 µM)	ESS-1 (Other Solid Carcinomas)	0.0027
CC1(C)CCC(CN2CCN(c3ccc(C(=O)NS(=O)(=O)c4ccc(NCC5CCOCC5)c([N+](=O)[O-])c4)c(Oc4cnc5[nH]ccc5c4)c3)CC2)=C(c2ccc(Cl)cc2)C1 [Venetoclax] + COc1cc(Nc2ncc3c(n2)-c2ccc(Cl)cc2C(c2c(F)cccc2OC)=NC3)ccc1C(=O)O [Alisertib] (first compound max 1 µM, 7x7, partner max 10 µM)	ESS-1 (Other Solid Carcinomas)	0.0748

Task: Find Bliss excess (ESS-1 (Other Solid Carcinomas)) for the entry Cc1nc(Nc2ncc(C(=O)Nc3c(C)cccc3Cl)s2)cc(N2CCN(CCO)CC2)n1 [Dasatinib] + CC(=O)Nc1cccc(-n2c(=O)n(C3CC3)c(=O)c3c(Nc4ccc(I)cc4F)n(C)c(=O)c(C)c32)c1 [Trametinib] (first compound max 2 µM, 7x7, partner max 1 µM)
Result: -0.0417

Task: Find Bliss excess (ESS-1 (Other Solid Carcinomas)) for the entry NC1(C(=O)N[C@@H](CCO)c2ccc(Cl)cc2)CCN(c2ncnc3[nH]ccc23)CC1 [Capivasertib] + C[C@@H]1COCCN1C2=NC(=NC(=C2)C3(CC3)[S@](=N)(=O)C)C4=C5C=CNC5=NC=C4 [AZD6738] (first compound max 10 µM, 7x7, partner max 10 µM)
Result: -0.0884
